settings: in ethanol, 308.17 K
ATTRIBUTE MEASURED: solubility (mole fraction)

q: # get_value(readout='solubility (mole fraction)', item= O=C(O)Cn1cnnn1 )
a: 0.129

----------
conditions: in n-butyl acetate, 288.22 K
ATTRIBUTE MEASURED: solubility (mole fraction)
Respond numerically, and do not add a unit to the figure.

q: // returns reported solubility (mole fraction) for input O=C(O)Cn1cnnn1
a: 0.00443

----------
conditions: in n-propanol, 308.33 K
ATTRIBUTE MEASURED: solubility (mole fraction)
Format: numeric value only, no unit, no commentary.

q: Can you share its solubility (mole fraction)? I mean this molecule: O=C(O)Cn1cnnn1
a: 0.068
